Quick list: IC50 per entry.
targetOfAssay: E. coli DNA gyrase (Escherichia coli, UniProt P0AES4+P0AES6)
measurementNotes: E. coli Gyrase-DNA supercoiling assay
conditionDetails: supercoiling of relaxed pHOT-1 plasmid in presence of ATP; 37° C., 60 minutes
# do not omit the unit; it follows the number

Worked cases, answers included:
O.O=C(O)c1cn(C2CC2)c2cc(N3CCN(CCCCCCCN4CCNCCNCCNCC4)CC3)c(F)cc2c1=O.[Cu+2] :: 0.24 µM
O.O=C(O)c1cn(C2CC2)c2cc(N3CCN(CCCCCCN4CCNCCNCCNCC4)CC3)c(F)cc2c1=O.[Cu+2] :: 0.1 µM
O.O=C(O)c1cn(C2CC2)c2cc(N3CCN(Cc4ccc(CCN5CCNCCNCCNCC5)cc4)CC3)c(F)cc2c1=O.[Cu+2] :: 0.18 µM

Read the next record carefully.
Which measured IC50 belongs to O.O=C(O)c1cn(C2CC2)c2cc(N3CCN(Cc4ccc(CCCN5CCNCCNCCNCC5)cc4)CC3)c(F)cc2c1=O.[Cu+2] , tested on E. coli DNA gyrase (Escherichia coli, UniProt P0AES4+P0AES6)?
0.09 µM
